Target: T1, Human Siglec-15, His Tag (human Siglec-15 full-length extracellular domain linked with His tag) (human, UniProt Q6ZMC9 20-263)
T1 construct: Bought from ACROBiosystems; also called Siglec-15 protein; SG5-H52H3
T1 sequence: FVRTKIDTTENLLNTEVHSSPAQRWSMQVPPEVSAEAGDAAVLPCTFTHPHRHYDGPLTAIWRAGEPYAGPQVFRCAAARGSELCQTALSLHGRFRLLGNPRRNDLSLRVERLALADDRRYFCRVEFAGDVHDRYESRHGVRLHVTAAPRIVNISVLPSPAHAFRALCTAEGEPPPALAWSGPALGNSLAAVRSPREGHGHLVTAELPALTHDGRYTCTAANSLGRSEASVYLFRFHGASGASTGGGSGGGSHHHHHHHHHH
Experiment: Octet BLI epitope binning, Siglec-15 His on HIS1K sensor; competitor 75E1F2
Measured cross-competition score of individual entries

// below: answered binders
174C11C9 chimeric antibody (antibody, human IgG1, V domains shown, also called 174C11C9-mHL) VH: EVQLQQSGPVLVKPGASVKMSCEASGYIFTDYYMNWVKQSPGKSLEWIGVFNPYSGGISYNQKFKGKATLTVDTSSSTAYMELNSLTSEDSAVYYCARDYYYLSSHGFYALDYWGQGTSVTVSS VL: DIVLTQSPASLAVSLGQRATISCRASESVDSYGNSFIHWYQQRPGRPPKLLMYRASNLESGIPARFSGSGSRTDFTLTIDPVEADDVATYYCQQSNEDPLTFGAGTKLELK; 4.2%
255C12B10 chimeric antibody (antibody, V domains shown, Mouse variable regions combined with human IgG1 (N297A) constant regions) VH: EVQLQQSGPELVKPGASVKMSCKASGYTFTGYNMNWVKQSHGKSLEWIGYINPNNGGTRYNQKFKGKATLTINKSSSTAYMELRSLTSEDSAVYYCARDYGIDYWGQGTTLTVSS VL: EIQMTQSPSSMSASLGDRITITCQATQDIVKNLNWYQQKPGKPPSFLIYYATELAEGVPSRFSGSGSGSDYSLTISNLESEDFADYYCLQFYEFPYTFGGGTKLEIK; 11.4%
124B11F6 chimeric antibody (antibody, human IgG1, V domains shown, also called 124B11F6-mHL) VH: EVQLQQSGAELVRPGASVKLSCTASVFNIKDYYMHWVKQRTEQGLEWIGRIDPEDDKTKYAPKFQGKATITADTSSNTAYLHLSTLTSEDTAVYYCVRGWLGYIMDFWGQGTSVTVSS VL: QLVLTQSSSASFSLGASAKLTCTLSSQHSTYTIDWYQQQPLKPPKYVMELKEDGSHSTGDGIPDRFSGSSSGADRYLGISNIQPEDEAVYICGVGATIKEQFVYVFGGGTKVTVL; 22.7%

Now let's try a different one.
Inquiry: Consider the binder 21F6C6 chimeric antibody (antibody, human IgG1, V domains shown, also called 21F6C6-mHL) VH: EVMLVESGGGLVKPGGSLKLSCAASGFTFSSYAMSWVRQSPEKRLEWVATISSGGSLIYYPDSVTGRFTISRDNAKSTLYLQMSSLRSEDTAMYYCVRHGYYYGDSTLYYAMDYWGPGTSVTVSS VL: DIVLTQSPASLAVSLGQRATISCKASQSVDYDGDSYMNWYQQKPGQPPKLLIYAASNLESGIPARFSGSGSGTDFTLNIHPVEEEDAATYYCQQSNEAPLTFGAGTKLELK and give its measured cross-competition score.
Reply text: 4.92%
